Values compiled from patent US6727277B1.

# ASSAYED TARGET: cholesterol ester transfer protein (CETP) (Homo sapiens, UniProt P11597)
# Sequence (P11597 18-493): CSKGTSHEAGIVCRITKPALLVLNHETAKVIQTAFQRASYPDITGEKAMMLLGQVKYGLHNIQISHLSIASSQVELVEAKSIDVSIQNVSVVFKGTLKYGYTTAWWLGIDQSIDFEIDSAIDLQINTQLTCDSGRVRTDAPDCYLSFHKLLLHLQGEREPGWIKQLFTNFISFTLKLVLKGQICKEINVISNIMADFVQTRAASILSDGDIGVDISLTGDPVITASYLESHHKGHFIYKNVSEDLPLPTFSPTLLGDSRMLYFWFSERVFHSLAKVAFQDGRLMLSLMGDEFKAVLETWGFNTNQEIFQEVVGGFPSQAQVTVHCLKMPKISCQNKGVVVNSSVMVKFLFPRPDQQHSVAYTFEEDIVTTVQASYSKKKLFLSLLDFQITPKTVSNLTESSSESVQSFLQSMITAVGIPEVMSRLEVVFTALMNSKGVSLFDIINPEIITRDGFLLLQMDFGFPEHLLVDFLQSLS
RECORDED METRIC: IC50 (µM)
One number for each entry, in µM.

Query string: Name the reported IC50 value associated with the compound CC1(C)CCC[C@]2(C)C3=CC4=C(Cl)C(=O)C(=O)C=C4O[C@]3(C)CC[C@@H]12
Result string: 31
